Quick reference: LogIC50 of the listed items.
Target: rat μ-opioid receptor (rat, UniProt P33535 1-398)
Sequence (P33535 whole entry): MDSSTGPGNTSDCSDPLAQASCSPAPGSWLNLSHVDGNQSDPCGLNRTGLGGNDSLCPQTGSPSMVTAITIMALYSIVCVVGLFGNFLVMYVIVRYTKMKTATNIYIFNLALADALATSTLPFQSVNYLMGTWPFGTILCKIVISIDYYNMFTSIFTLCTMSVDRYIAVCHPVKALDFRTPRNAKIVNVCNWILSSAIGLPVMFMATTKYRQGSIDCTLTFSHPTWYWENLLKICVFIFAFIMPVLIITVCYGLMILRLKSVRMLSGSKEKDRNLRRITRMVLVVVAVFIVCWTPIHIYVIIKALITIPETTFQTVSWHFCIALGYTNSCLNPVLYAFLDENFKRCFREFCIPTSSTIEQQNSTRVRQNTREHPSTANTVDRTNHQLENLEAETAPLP
Experiment: radioligand binding
Non-standard residues stand in square brackets, D forms with d. No end group written: not given here. *: point of attachment. NH(3,5-(CF3)2-benzyl) = FC(F)(F)c1cc(CN*)cc(C(F)(F)F)c1; βGlc = OC[C@H]1O[C@@H](*)[C@H](O)[C@@H](O)[C@@H]1O; Nle = CCCC[C@H](N)C(=O)O
Answer with the value's number alone.

Consider the worked cases shown below.
- Y[dA]GF[Nle]PS(βGlc)W-{NH(3,5-(CF3)2-benzyl)} [Tyr-D-Ala-Gly-Phe-Nle-Pro-Ser(Glc)-Trp-NH-3’,5’-Bzl(CF3)2]: -7.77
- Y[dA]GF[Nle]S(βGlc)LW-{NH(3,5-(CF3)2-benzyl)} [Tyr-D-Ala-Gly-Phe-Nle-Ser(Glc)-Leu-Trp-NH-3’,5’-Bzl(CF3)2]: -5.15
- Y[dA]GF[Nle]PLS(βGlc)W-{NH(3,5-(CF3)2-benzyl)} [Tyr-D-Ala-Gly-Phe-Nle-Pro-Leu-Ser(Glc)-Trp-NH-3’,5’-Bzl(CF3)2]: -7.22

Read the next record carefully.
Query: Report LogIC50 for Y[dA]GFS(βGlc)PLW-{NH(3,5-(CF3)2-benzyl)} [Tyr-D-Ala-Gly-Phe-Ser(Glc)-Pro-Leu-Trp-NH-3’,5’-Bzl(CF3)2] please.
Result: -6.12
